assay: protein stability index of a GFP-peptide fusion (GPS, HEK-293T) (PSI 1-6); higher = more stable; details: treatment: DMSO; c terminus: a fixed tail appended;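 also: 24-mer peptide tiles fused after GFP, lentivirally expressed, FACS-sorted into six equal bins by GFP/DsRed ratio, decoded by Illumina sequencing, PSI is the read-weighted mean bin number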
So I've got a bunch of sequences here, and I need their protein stability index values.

SLQSCMHFQPNSPASDLEAALEAA [NANOGP8] :: 4.6
FSAHYDAVEAELKSSTVGLVTLND [FAM50A] :: 3.86
ELGVIFYNCSCLVLDLQRIFALYS [PLD5] :: 3.24

Batch of 7 sequences: report protein stability index for each.
1. FLSLEASTETLVHVSDEDNNADLC [DLC1]
2. APAGDKGFQPPSPSLRPRPASSIS [DMRTC1]
3. AYQHSGHLESKDINQEELRALEEV [C10orf62]
4. YLYFLFCPTLIYRETYPRTPYVRW [SOAT2]
5. EEAVILLEDLERELDEPQHEMVAH [ZSCAN9]
6. LCEKAKEILTKESNVQEVRCPVTV [PPP2CA]
7. LYLEEIADRIIEVDMECQTDAFLD [RSPH3]

OUTPUT:
1: 5.11; 2: 4.61; 3: 5.41; 4: 2.67; 5: 4.14; 6: 4.11; 7: 2.44

Batch of 6 sequences: report protein stability index for each.
1. SQSLCLNKPTMSFKDYIQERSDPV [ETS2]
2. GPPRAPGRSGWPAGGAPGSPIPSP [HES6]
3. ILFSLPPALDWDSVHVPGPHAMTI [PTPN9]
4. YKLVGSPPWKEAFRQRCLERMRNS [RPAIN]
5. MTDGILGKAATMEIPIHGNGEARQ [ARFIP2]
6. TEPDYKSKDWVFLNYTYKRFEGLT [STK38L]

OUTPUT:
[3.54, 4.32, 2.66, 2.74, 4.58, 1.92]

Batch of 4 sequences: report protein stability index for each.
1. GQVTPRGLRLRLPRRESLLRGLCR [C6orf223]
2. RPVSCSGRDALLDQIRQGIQLKSV [WASL]
3. VRLKPALQRLDFSVRGYMMSKQRE [RETREG3]
4. YDCGEDFYRSTAPSEDIWKKFELV [MYCL]

OUTPUT:
[3.24, 5.08, 2.64, 2.96]

Batch of 2 sequences: report protein stability index for each.
1. AVPHPPPSTPIKLEEGDGCAREYL [ADD1]
2. AYDFPSPEWDTVTPEAKDLINKML [CAMK2A]

OUTPUT:
4.16
3.24
